Recorded values, source PubChem BioAssay AID1996.

Below is a list of entries, each paired with its recorded solubility kinetic value.
- stated conditions: buffer; pH 7.4; 200.0 µM
# output: bare number, implied unit µg/mL

See these solved cases before continuing.
1. CCCOc1ncnc2c1[nH]c1ccc(OC)cc12 :: 0.5
2. Cc1ccc(NC(=O)Cc2c[nH]c3ccccc23)cc1 :: 3.2
3. Cc1cc(C)cc(N2C(=O)CN(Cc3ccccc3)C2=S)c1 :: 4.1
4. O=C(CCCCCCC(=O)NCc1ccccc1)NCc1ccccc1 :: 1.4
5. Cl.c1ccc(Cc2ccc(OCCN3CCOCC3)cc2)cc1 :: 42.2
6. c1ccc(OCc2noc(CN3CC[C@@H]4CCCC[C@H]4C3)n2)cc1 :: 6
7. O=S(=O)(Nc1cccc2ccccc12)c1cccs1 :: 5.1
8. Nc1nc(NCCc2ccccc2)nc(NCc2ccccc2)c1[N+](=O)[O-] :: 0.2

Entry Cc1cc(C)cc(NC(=O)COC(=O)c2ccc3c(c2)OCCO3)c1 ; solubility kinetic = 2.3

Entry COc1ccc(Cn2c(=S)[nH]c3ccccc32)cc1 ; solubility kinetic = 1.2

Entry Cc1cccc2nc3c(nc12)-c1ccccc1C3=O ; solubility kinetic = 0.5

Entry O=C(COc1ccccc1)NCC1(N2CCCCC2)CCCCC1 ; solubility kinetic = 48.3

----------
- stated conditions: buffer; pH 7.4; 200.0 µM
Below is a list of entries, each paired with its recorded solubility kinetic value.
# output: bare number, implied unit µg/mL

See these solved cases before continuing.
1. Cc1cc(C)nc(SC(C)CNS(=O)(=O)c2ccccc2)n1 (configuration not stated) :: 45.9
2. COc1cccc(CNC(=O)C(Cc2ccccc2)n2cccc2)c1 (configuration not stated) :: 29.7
3. O=C(NCCSCc1c(F)cccc1Cl)Nc1ccccc1 :: 2.5
4. Cc1cccc(CSCc2ccc(C(=O)NCC3CCCO3)o2)c1 (configuration not stated) :: 46.6

Now look at this entry.
Entry CCOC(=O)c1cccc(NC(=O)c2ccc3c(c2)OCO3)c1 ; solubility kinetic = 2.7

----------
- stated conditions: buffer; pH 7.4; 200.0 µM
Returns one of 1.0 or 0.0; 1.0 when solubility kinetic is >= 7 µg/mL.

Completed entries (count: 4):
1) CCC(C)NCCOc1cc(C)cc(C)c1C.O=C(O)C(=O)O (centres undefined) :: 1.0
2) Cc1ccc(S(=O)(=O)Nc2ccncc2)c(C)c1.Cl :: 1.0
3) CC(=O)N1CCN(C(=O)c2ccc3c(c2)OCO3)CC1 :: 1.0
4) COc1cc(OC)c(C(=O)Nc2cccc3ccccc23)cc1OC :: 0.0

Is solubility kinetic for COc1cccc(NC(=O)COC(=O)CNC(=O)C2CCCCC2)c1 at or above 7 µg/mL?
1.0

Is solubility kinetic for CCN1C(=O)c2cccc3c(S(=O)(=O)N(C(C)=O)c4ccc(OC(C)=O)cc4)ccc1c23 at or above 7 µg/mL?
0.0

----------
Below is a list of entries, each paired with its recorded solubility kinetic value.
- stated conditions: buffer; pH 7.4; 200.0 µM
# output: bare number, implied unit µg/mL

Entry Cc1cc(C(=O)Nc2ccc(Br)cc2)cs1 ; solubility kinetic = 0.7

Entry CC(=O)Nc1ccc(-c2csc(NCc3ccccc3)n2)cc1 ; solubility kinetic = 33.9

Entry CCOC(=O)c1cc(-c2csc(COc3ccccc3)n2)on1 ; solubility kinetic = 0.4

Entry O=C(NC1CCSC1=O)C1CC(=O)N(c2ccc(F)cc2)C1 (configuration not stated) ; solubility kinetic = 46.2

Entry O=[N+]([O-])c1ccc(Nc2cccc(F)c2)nc1 ; solubility kinetic = 13.4

Entry CSc1sc(C(=O)NCC2CC2)cc1S(=O)(=O)C(C)C ; solubility kinetic = 49.3

Entry CCOc1ccc(S(=O)(=O)NCCC(=O)N2CCC(Cc3ccccc3)CC2)cc1 ; solubility kinetic = 12.8
